This collection of values is drawn from the DeepSol protein solubility set.

Assay: soluble on expression in E. coli; label from the status in PepcDB or PDB records
readout kind: soluble on expression in E. coli

Solved cases (6 shown):
query sequence	meas value
MGSDKIHHHHHHMQLSKAAEMCYEITNSYLHIDQKSQIIASTQEAIRLTRKYLLSEIFVRWSPLNGEISFSYNGGKDCQVLLLLYLSCLWEYFFIKAQNSQFDFEFQSFPMQRLPTVFIDQEETFPTLENFVLETSERYCLSLYESQRQSGASVNMADAFRDFIKIYPETEAIVIGIRHTDPFGEALKPIQRTDSNWPDFMRLQPLLHWDLTNIWSFLLYSNEPICGLYGKGFTSIGGINNSLPNPHLRKDSNNPALHFEWEIIHAFGKDAEGERSSAINTSPISVVDKERFSKYHDNYYPGWYLVDDTLERAGRIKN	not soluble
MALLLVMGIPASGKSTFRRKIQTAHRELLESTSFDDFRMMRTRSSDKNARQTRKSFECHVESCISESTSKIYVIEDIFYLKSMRHPFQKIAKRHGLQFGIIFLKVGIVEALRRNSHRTGIEKQKNETIRKIFEKMEDPDEILENSIVLETDEVEIDVEVVMNKLKFDFTAKKPIVPEVSLKKSHIQKPPPPSKLESLDVLTRRLVSELMQNDKTMNGRKLSDARKKLLIDLSGNLEISNENDPKFLYDLKLKLIEFYDK	not soluble
MASKRIIRMSDLLHTTPVFNRGYRFQWEQAQQSYVILYPEGLVRLNESATLILKQIDGKLTVHDIIQNLSAQFPDATGLDQDIVEFLKQAESRQWICLQ	not soluble
MAIVNATDQTFAAETKDGLTLVDFWAPWCGPCRMIAPVLEELDREMGDKVKIVKVNVDENQETASKFGVMSIPTLLVFKNGELVDKAIGYQPKEALVQLVGKHVS	soluble
MTLTAQKNSWWVGAHAGREYFNNTSEDMKKGWNTGVVLRYYFSDRIYSLATLNYGFASSLSPSGYFDELGNSPNARFRRHSILPAVGLGYEFFQGDFYSCYAQGGVGYGMEYNSVSYPQEYDVSVKRFGWLAELGGDYFLRDNLSLGISVAHLRVGWRNNWTANVKLSICLL	not soluble
MSLNKKIIFFDIDGTLLVHNGKESTIPYSTKEALKKLKEKGHNLFICSGRPIRFAIQEFQEMVDGYICCNGTYIVYNGKCIYNKLIDKDTLKYLIKEFCKLGISASFSGAYNGYSYNMSSEKIHQMNRFYKTENPYILDNWNIEEIEANNVDVFFKNNEHMEKCIKYLEHKLIFNTHKPYLSADVSFKNWDKSKGIEYLVKYMKRDMKDTMAFGDGKNDITMLKTVNIGIAMGNAVDEVKNKADMVTDSAADDGIYNALNKLHLIEGHHHHHH	soluble

Consider now this further sequence.
Input: Please give the measured soluble on expression in E. coli for this sequence: `MGSDKIHHHHHHMLSRTADHLFWMARYTERAENTARMLDVNYQTSLLPQSAEVAEQGWWAMLDISELTNAFDHKYGLLTRDDVIDFMVRDMTNPSSIMSCLRAARENARAVRGSLTTEVWETVNTTWLDVQRMIADGELQEDPSRFFEWVKFRSHLARGVQFGTMLKDDAFHFMRLGTFLERADNTARILDVKFQASGSDDSDPNREQNDFYHWAAVLRSVSGFEVYRKVYRAVITPQRVAELLILRPDMPRSLVSSMDEVVAILAMVCNHQSGETERQAGKLHADLKFARIDDIFAVGLHAFLTSFLERIGDIGNGISRDFLVPLQAA`
Output: not soluble
